meta.source: patent US11524944B2

TGT: Human AhR (Homo sapiens)
Sequence (P35869 11-848): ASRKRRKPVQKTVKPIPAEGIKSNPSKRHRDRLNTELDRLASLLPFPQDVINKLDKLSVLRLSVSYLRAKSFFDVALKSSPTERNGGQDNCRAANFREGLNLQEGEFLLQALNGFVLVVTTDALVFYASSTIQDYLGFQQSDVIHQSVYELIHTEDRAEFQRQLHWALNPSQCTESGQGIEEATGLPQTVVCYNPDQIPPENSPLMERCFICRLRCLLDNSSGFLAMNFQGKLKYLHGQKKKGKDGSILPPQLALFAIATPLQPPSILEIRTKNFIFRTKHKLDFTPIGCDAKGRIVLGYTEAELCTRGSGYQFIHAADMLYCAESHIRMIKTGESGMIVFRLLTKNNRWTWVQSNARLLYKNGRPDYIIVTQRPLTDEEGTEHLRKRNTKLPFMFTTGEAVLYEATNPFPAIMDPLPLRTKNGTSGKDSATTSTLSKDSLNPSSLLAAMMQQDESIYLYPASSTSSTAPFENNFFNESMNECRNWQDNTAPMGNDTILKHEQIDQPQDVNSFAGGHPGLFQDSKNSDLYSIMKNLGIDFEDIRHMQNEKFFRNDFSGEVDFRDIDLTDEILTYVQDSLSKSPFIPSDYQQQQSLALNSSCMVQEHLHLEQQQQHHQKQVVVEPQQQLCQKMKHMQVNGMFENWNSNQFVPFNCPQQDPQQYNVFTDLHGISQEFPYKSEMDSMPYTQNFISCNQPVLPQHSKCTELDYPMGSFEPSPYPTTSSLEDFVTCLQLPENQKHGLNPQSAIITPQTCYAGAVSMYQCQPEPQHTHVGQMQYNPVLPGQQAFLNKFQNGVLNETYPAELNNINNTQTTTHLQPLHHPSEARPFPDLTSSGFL
ASSAY_SUMMARY: Transactivation assay in human cell line (in vitro assay 1): antagonism
APPLIED_CONDITIONS: U87 glioblastoma cells, AHR inducible firefly luciferase reporter (DRE), 150 μM kynurenic acid, 20 hours
pIC50: −log10 of the molar value.
OBSERVABLE: pIC50

Check out these entries, answers already filled in.
{"MOL": "COc1ccc(-c2nc(C(=O)N[C@@H](C)CO)cc(-c3ccc(Cl)cc3)n2)cc1", "TGT": "Human AhR (Homo sapiens)", "pIC50": 6.41}
{"MOL": "C[C@@H](CO)NC(=O)c1cc(-c2ccc(Cl)cc2)nc(-c2cccc(F)c2)n1", "TGT": "Human AhR (Homo sapiens)", "pIC50": 8.77}
{"MOL": "COc1ccc(-c2nc(C(=O)N[C@@H](C)CO)cc(-c3ccc(OC(F)(F)F)cc3)n2)cc1", "TGT": "Human AhR (Homo sapiens)", "pIC50": 6.14}

1. C[C@@H](CO)NC(=O)c1cc(-c2ccc(OC(F)(F)F)cc2)nc(-c2ccc(C(F)F)cc2)n1
2. C[C@@H](CO)NC(=O)c1cc(-c2ccc(Cl)cc2)nc(-c2cc(Cl)cc(Cl)c2)n1
3. C[C@@H](CO)NC(=O)c1cc(-c2ccc(OC(F)(F)F)cc2)nc(-c2cc(Cl)cc(Cl)c2)n1
4. C[C@@H](CO)NC(=O)c1cc(-c2cccc(F)c2)nc(-c2ccc(Cl)cc2)n1
5. C[C@@H](CO)NC(=O)c1cc(-c2ccc(Cl)cc2)nc(-c2cccc(C#N)c2)n1
Asked: Rank by pIC50 (largest to smallest). # answer = labels listed in requested order
Given back: 5, 4, 2, 3, 1
(5: 7.71, 4: 7.45, 2: 7.00, 3: 6.77, 1: 5.96)

* * *

TGT: Mouse AhR (Mus musculus)
Sequence (P30561 whole entry P471L/N533S/M589L, form open): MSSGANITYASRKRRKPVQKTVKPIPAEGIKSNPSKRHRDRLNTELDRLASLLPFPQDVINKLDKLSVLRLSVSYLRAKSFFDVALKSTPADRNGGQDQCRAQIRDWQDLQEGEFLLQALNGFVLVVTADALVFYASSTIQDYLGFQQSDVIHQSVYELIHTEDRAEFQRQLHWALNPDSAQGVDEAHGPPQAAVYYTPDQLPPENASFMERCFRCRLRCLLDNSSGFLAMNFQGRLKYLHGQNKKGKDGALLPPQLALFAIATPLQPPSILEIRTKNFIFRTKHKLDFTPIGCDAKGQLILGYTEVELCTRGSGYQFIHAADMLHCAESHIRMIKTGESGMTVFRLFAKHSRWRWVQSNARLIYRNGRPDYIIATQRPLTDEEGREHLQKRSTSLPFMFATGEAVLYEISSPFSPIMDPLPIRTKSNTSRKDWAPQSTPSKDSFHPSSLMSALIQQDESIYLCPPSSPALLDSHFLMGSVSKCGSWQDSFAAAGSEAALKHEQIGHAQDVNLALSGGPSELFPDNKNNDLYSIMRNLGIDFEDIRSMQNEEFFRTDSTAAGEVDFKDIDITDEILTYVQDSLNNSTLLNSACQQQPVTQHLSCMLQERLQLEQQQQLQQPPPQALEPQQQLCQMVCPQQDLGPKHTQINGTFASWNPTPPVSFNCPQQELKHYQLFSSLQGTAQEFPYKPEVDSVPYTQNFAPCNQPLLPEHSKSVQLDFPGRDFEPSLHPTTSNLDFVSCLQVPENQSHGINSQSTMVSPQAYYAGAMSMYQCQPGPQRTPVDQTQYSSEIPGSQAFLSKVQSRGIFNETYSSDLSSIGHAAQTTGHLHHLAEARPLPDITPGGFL
ASSAY_SUMMARY: Transactivation assay in mouse cell line (in vitro assay 2): antagonism
APPLIED_CONDITIONS: Hepa 1c1c7 cells, AHR inducible firefly luciferase reporter (DRE), 200 μM kynurenic acid, 20 hours
OBSERVABLE: IC50 (nM)

Check out these entries, answers already filled in.
{"COMPOUND": "O=C(NC(CO)C1CCC1)c1cc(-c2ccc(OC(F)(F)F)cc2)nc(-c2cccc(F)c2)n1 (stereo not shown)", "UNIT_ABBREVIATION": "nM", "IC50": 12.8}
{"COMPOUND": "CC(NC(=O)c1cc(-c2ccc(OC(F)(F)F)cc2)nc(-c2cccc(F)c2)n1)C(O)CO (stereo not shown)", "UNIT_ABBREVIATION": "nM", "IC50": 2.37}

1. C[C@@H](CO)NC(=O)c1cc(-c2ccc(Cl)cc2)nc(-c2cccc(F)c2)n1
2. C[C@@H](CO)NC(=O)c1cc(-c2cccc(F)c2)nc(-c2ccc(Cl)cc2)n1
3. Cc1cc(-c2nc(C(=O)N[C@@H](C)CO)cc(-c3ccc(OC(F)(F)F)cc3)n2)ccc1F
4. CC(C)(O)CNC(=O)c1cc(-c2ccc(OC(F)(F)F)cc2)nc(-c2cccc(C#N)c2)n1
Asked: Rank by IC50 (largest to smallest). # answer = labels listed in requested order
Given back: 3, 4, 2, 1

1. CC(C)(O)CNC(=O)c1cc(-c2ccc(Cl)cc2)nc(-c2ccc(F)c(Cl)c2)n1
2. C[C@@H](CO)NC(=O)c1cc(-c2cccc(F)c2)nc(-c2ccc(C(F)(F)F)cc2)n1
Asked: I'm curious whether 1 or 2 has the smaller IC50 number. Which is it? Answer by quoting the chosen item's label.
Given back: 2

A. CC(C)(O)CNC(=O)c1cc(-c2ccc(OC(F)(F)F)cc2)nc(-c2ccc(Cl)c(Cl)c2)n1
B. CC(C)(O)CNC(=O)c1cc(-c2ccc(OC(F)(F)F)cc2)nc(-c2ccc(Cl)cc2)n1
Asked: Would you let me know which has the greater IC50 value, A or B ? Answer by quoting the chosen item's label.
Given back: A

1. C[C@@H](CO)NC(=O)c1cc(-c2cccc(F)c2)nc(-c2ccc(OC(F)(F)F)cc2)n1
2. Cc1cc(-c2nc(C(=O)NCC(C)(C)O)cc(-c3ccc(Cl)cc3)n2)ccc1F
Asked: I'm curious whether 1 or 2 has the smaller IC50 number. Which is it? Answer by quoting the chosen item's label.
Given back: 1
